Staphylococcus aureus A355 (penicillinase-producing) data, read-out MIC
Report as a plain number; the unit µg/mL is understood.

Solved entries (count: 3):
compound	readout kind	result number
Cc1c(-c2c(Cl)cccc2Cl)noc1CC(=O)NC1C(=O)N2C1SC(C)(C)C2C(=O)O (stereo not drawn) [Example X]	MIC	3
CC1(C)SC2C(NC(=O)Cc3cc(C45CC6CC(CC(C6)C4)C5)no3)C(=O)N2C1C(=O)O (stereo not drawn) [Example XVI]	MIC	12.5
Cc1cc(C)c(-c2cc(C(C)C(=O)NC3C(=O)N4C3SC(C)(C)C4C(=O)O)on2)c(C)c1 (stereo not drawn) [Example XI]	MIC	12.5

Data point: CC1(C)SC2C(NC(=O)Cc3cc(-c4c(Cl)cccc4Cl)no3)C(=O)N2C1C(=O)O (stereo not drawn) [Example I] ; MIC = 3

Data point: CC(=O)OCC1=C(C(=O)O)N2C(=O)C(NC(=O)Cc3cc(-c4c(C)cc(C)cc4C)no3)C2SC1 (stereo not drawn) [VII] ; MIC = 0.25

Data point: CC1(C)SC2C(NC(=O)C(NC(=O)OCc3ccc([N+](=O)[O-])cc3)c3cc(-c4c(Cl)cccc4Cl)no3)C(=O)N2C1C(=O)O (stereo not drawn) [Example XVII] ; MIC = 12.5

Data point: CC1(C)SC2C(NC(=O)C(N)c3cc(-c4c(Cl)cccc4Cl)no3)C(=O)N2C1C(=O)O (stereo not drawn) [Example XVIII] ; MIC = 12.5

Data point: CC1(C)S[C@@H]2C(NC(=O)Cc3onc(-c4c(Cl)cccc4Cl)c3C(=O)O)C(=O)N2[C@H]1C(=O)O (stereo partly drawn) [Example V] ; MIC = 12.5

Data point: CC(=O)OCC1=C(C(=O)O)N2C(=O)C(NC(=O)Cc3cc(C(C)(C)C)no3)C2SC1 (stereo not drawn) [XXXIV] ; MIC = 1.5

Data point: CC(=O)OCC1=C(C(=O)O)N2C(=O)[C@@H](NC(=O)Cc3cccs3)[C@H]2SC1 [Cephalotin, reference compound] ; MIC = 1

Data point: CC1(C)SC2C(NC(=O)C(C(N)=O)c3cc(-c4c(Cl)cccc4Cl)no3)C(=O)N2C1C(=O)O (stereo not drawn) [Example XX] ; MIC = 3
